assay: log P determination by HPLC (reversed-phase C18), EEC Directive 79/831 Annex V.A8; type: physicochemical; settings: reversed-phase C18 HPLC column; pH 2.3; HPLC, reversed-phase C 18, 43° C., 0.1% aqueous phosphoric acid/acetonitrile; read-out: log P (pH 2.3)
Reported chromatographic logP values are given for each entry in this list.
REPORTED_PROPERTY: chromatographic logP

[
  {
    "MOLECULE": "CCOC(=O)CSc1nccc(-c2ncccc2F)n1",
    "REPORTED_PROPERTY": "chromatographic logP",
    "QUANTITATIVE_RESULT": 2.04
  },
  {
    "MOLECULE": "CCOC(=O)CSc1nccc(-c2ncccc2C(F)(F)F)n1",
    "REPORTED_PROPERTY": "chromatographic logP",
    "QUANTITATIVE_RESULT": 2.53
  },
  {
    "MOLECULE": "O=C(CSc1nccc(-c2ccccn2)n1)NCc1ccccc1OC(F)(F)F",
    "REPORTED_PROPERTY": "chromatographic logP",
    "QUANTITATIVE_RESULT": 2.72
  },
  {
    "MOLECULE": "CCOC(=O)CCCOC(=O)CSc1nccc(-c2ccccn2)n1",
    "REPORTED_PROPERTY": "chromatographic logP",
    "QUANTITATIVE_RESULT": 2.72
  },
  {
    "MOLECULE": "O=C(CSc1nccc(-c2ccccn2)n1)N1CCOCC1",
    "REPORTED_PROPERTY": "chromatographic logP",
    "QUANTITATIVE_RESULT": 1.55
  },
  {
    "MOLECULE": "O=C(CSc1nccc(-c2ccccn2)n1)OCC1COC(=O)O1 (centres unmarked)",
    "REPORTED_PROPERTY": "chromatographic logP",
    "QUANTITATIVE_RESULT": 1.63
  },
  {
    "MOLECULE": "O=C(O)CSc1nccc(-c2ccccn2)n1",
    "REPORTED_PROPERTY": "chromatographic logP",
    "QUANTITATIVE_RESULT": 1.14
  },
  {
    "MOLECULE": "CCOC(=O)CSc1nccc(-c2ccccn2)n1",
    "REPORTED_PROPERTY": "chromatographic logP",
    "QUANTITATIVE_RESULT": 2.17
  },
  {
    "MOLECULE": "COCCOC(=O)CSc1nccc(-c2ccccn2)n1",
    "REPORTED_PROPERTY": "chromatographic logP",
    "QUANTITATIVE_RESULT": 1.97
  },
  {
    "MOLECULE": "CC1(CCCOC(=O)CSc2nccc(-c3ccccn3)n2)OCCO1",
    "REPORTED_PROPERTY": "chromatographic logP",
    "QUANTITATIVE_RESULT": 2.57
  },
  {
    "MOLECULE": "COC(=O)CCCOC(=O)CSc1nccc(-c2ccccn2)n1",
    "REPORTED_PROPERTY": "chromatographic logP",
    "QUANTITATIVE_RESULT": 2.21
  },
  {
    "MOLECULE": "CCOC(=O)c1cc(NC(=O)NCCOC(=O)CSc2nccc(-c3ccccn3)n2)ccc1Cl",
    "REPORTED_PROPERTY": "chromatographic logP",
    "QUANTITATIVE_RESULT": 4.95
  },
  {
    "MOLECULE": "O=C(NCCCOC(=O)CSc1nccc(-c2ccccn2)n1)Nc1ccc(C(F)(F)F)cc1",
    "REPORTED_PROPERTY": "chromatographic logP",
    "QUANTITATIVE_RESULT": 3.2
  },
  {
    "MOLECULE": "CC(=O)OCCCCCOC(=O)CSc1nccc(-c2ccccn2)n1",
    "REPORTED_PROPERTY": "chromatographic logP",
    "QUANTITATIVE_RESULT": 2.82
  },
  {
    "MOLECULE": "CC(C)(C)OC(=O)CSc1nccc(-c2ccccn2)n1",
    "REPORTED_PROPERTY": "chromatographic logP",
    "QUANTITATIVE_RESULT": 2.96
  },
  {
    "MOLECULE": "COC(=O)CSc1nc(-c2ccccn2)cc(-c2ccco2)n1",
    "REPORTED_PROPERTY": "chromatographic logP",
    "QUANTITATIVE_RESULT": 3.01
  },
  {
    "MOLECULE": "COC(=O)/C=C(/CSc1nccc(-c2ccccn2)n1)OC",
    "REPORTED_PROPERTY": "chromatographic logP",
    "QUANTITATIVE_RESULT": 2.7
  },
  {
    "MOLECULE": "CCOC(=O)CSc1nccc(-c2cccc(C)n2)n1",
    "REPORTED_PROPERTY": "chromatographic logP",
    "QUANTITATIVE_RESULT": 2.46
  },
  {
    "MOLECULE": "Cn1ccnc1COC(=O)CSc1nccc(-c2ccccn2)n1",
    "REPORTED_PROPERTY": "chromatographic logP",
    "QUANTITATIVE_RESULT": 1.02
  },
  {
    "MOLECULE": "O=C(CSc1nccc(-c2ccccn2)n1)Oc1ccccc1",
    "REPORTED_PROPERTY": "chromatographic logP",
    "QUANTITATIVE_RESULT": 2.88
  }
]
